- tgt: CaLsb4
- method-notes: SPOT peptide array binding signal intensity (averaged, normalized) (arbitrary units (background-subtracted, floor 0; scale differs between SH3 domains)); higher = stronger binding of the SH3 domain to the peptide
Classify by SPOT peptide array binding signal intensity. Ranges: lower bin = under 50, middle bin = from 50 up to 700, upper bin = 700 and over

Lookup: Where would KRRAPPPVPKKPSSR land among the classes by reported SPOT peptide array binding signal intensity?
Found: upper bin

Lookup: Where would MTKTPETSPPKRPMG land among the classes by reported SPOT peptide array binding signal intensity?
Found: middle bin

Lookup: Where would EREKALPPIPFTTTL land among the classes by reported SPOT peptide array binding signal intensity?
Found: lower bin

Lookup: Where would VPKEPAPAPPPEPDM land among the classes by reported SPOT peptide array binding signal intensity?
Found: lower bin

Lookup: Where would LKHGWKPLRPIKLIS land among the classes by reported SPOT peptide array binding signal intensity?
Found: middle bin

Lookup: Where would VKPRQLFPIPLNKVD land among the classes by reported SPOT peptide array binding signal intensity?
Found: lower bin

Lookup: Where would LKQRFFLMFPKSIIW land among the classes by reported SPOT peptide array binding signal intensity?
Found: lower bin

Lookup: Where would YVRRRPRVRLEPLLS land among the classes by reported SPOT peptide array binding signal intensity?
Found: middle bin

Lookup: Where would PVLPPPRSPNRPTLS land among the classes by reported SPOT peptide array binding signal intensity?
Found: upper bin
